# MIC values compiled below
- Tested on: Staphylococcus aureus
- assay.protocol: Compound tested for the activity against Staphylococcus aureus strain 2
- Assay type: functional
Peptide text beside a SMILES is read from it.
readout.label: MIC (µg/mL)

molecule | target.desc | readout.label | unit.abbrev | reading.qualifier | reported.result
CC(C)C[C@H](NC(=O)[C@H](CCCCN)NC(=O)[C@H](CC(C)C)NC(=O)[C@H](Cc1ccccc1)NC(=O)[C@H](CCCCN)NC(=O)[C@H](CCCCN)NC(=O)[C@H](C)NC(=O)[C@H](Cc1ccccc1)NC(=O)[C@H](CCCCN)NC(=O)[C@H](CCCCN)NC(=O)[C@H](Cc1ccccc1)NC(=O)[C@H](CC(C)C)NC(=O)[C@@H](N)CCCCN)C(=O)N[C@@H](Cc1ccccc1)C(=O)N[C@@H](CCCCN)C(=O)N[C@@H](C)C(=O)N[C@@H](Cc1c[nH]c2ccccc12)C(=O)O (H-KLFKKFAKKFLKLFKAW-OH) | Staphylococcus aureus | MIC | µg/mL | = | 25
CC(C)C[C@H](NC(=O)[C@H](CCCCN)NC(=O)[C@H](CC(C)C)NC(=O)[C@H](Cc1c[nH]c2ccccc12)NC(=O)[C@H](CCCCN)NC(=O)[C@H](CCCCN)NC(=O)[C@H](C)NC(=O)[C@H](Cc1c[nH]c2ccccc12)NC(=O)[C@H](CCCCN)NC(=O)[C@H](CCCCN)NC(=O)[C@H](Cc1c[nH]c2ccccc12)NC(=O)[C@H](CC(C)C)NC(=O)[C@@H](N)CCCCN)C(=O)N[C@@H](Cc1c[nH]c2ccccc12)C(=O)N[C@@H](CCCCN)C(=O)N[C@@H](C)C(=O)N[C@@H](Cc1c[nH]c2ccccc12)C(=O)O (H-KLWKKWAKKWLKLWKAW-OH) | Staphylococcus aureus | MIC | µg/mL | = | 6.25
CC(C)C[C@H](NC(=O)[C@H](Cc1c[nH]c2ccccc12)NC(=O)[C@H](CCCCN)NC(=O)[C@H](CCCCN)NC(=O)[C@@H](N)Cc1c[nH]c2ccccc12)C(=O)N[C@@H](Cc1c[nH]c2ccccc12)C(=O)N[C@@H](C)C(=O)N[C@@H](CCCCN)C(=O)N[C@@H](Cc1c[nH]c2ccccc12)C(=O)O (H-WKKWLWAKW-OH) | Staphylococcus aureus | MIC | µg/mL | = | 25
CC(C)C[C@H](NC(=O)[C@H](CCCCN)NC(=O)[C@H](CC(C)C)NC(=O)[C@H](Cc1c[nH]c2ccccc12)NC(=O)[C@H](CCCCN)NC(=O)[C@@H](N)CCCCN)C(=O)N[C@@H](Cc1c[nH]c2ccccc12)C(=O)N[C@@H](CCCCN)C(=O)N[C@@H](C)C(=O)N[C@@H](Cc1c[nH]c2ccccc12)C(=O)O (H-KKWLKLWKAW-OH) | Staphylococcus aureus | MIC | µg/mL | > | 100
CC(C)C[C@H](NC(=O)[C@H](C)NC(=O)[C@H](CCCCN)NC(=O)[C@H](C)NC(=O)[C@H](CC(C)C)NC(=O)[C@H](CCCCN)NC(=O)[C@H](C)NC(=O)[C@H](CC(C)C)NC(=O)[C@H](CCCCN)NC(=O)[C@H](C)NC(=O)[C@H](CC(C)C)NC(=O)[C@H](CCCCN)NC(=O)[C@H](CCCCN)NC(=O)[C@H](C)NC(=O)[C@H](CC(C)C)NC(=O)[C@@H](N)CCCCN)C(=O)O (H-KLAKKLAKLAKLAKAL-OH) | Staphylococcus aureus | MIC | µg/mL | > | 100
